# Study System: SUV420H1 enzyme (Homo sapiens)
# Sequence (Q4FZB7 whole entry): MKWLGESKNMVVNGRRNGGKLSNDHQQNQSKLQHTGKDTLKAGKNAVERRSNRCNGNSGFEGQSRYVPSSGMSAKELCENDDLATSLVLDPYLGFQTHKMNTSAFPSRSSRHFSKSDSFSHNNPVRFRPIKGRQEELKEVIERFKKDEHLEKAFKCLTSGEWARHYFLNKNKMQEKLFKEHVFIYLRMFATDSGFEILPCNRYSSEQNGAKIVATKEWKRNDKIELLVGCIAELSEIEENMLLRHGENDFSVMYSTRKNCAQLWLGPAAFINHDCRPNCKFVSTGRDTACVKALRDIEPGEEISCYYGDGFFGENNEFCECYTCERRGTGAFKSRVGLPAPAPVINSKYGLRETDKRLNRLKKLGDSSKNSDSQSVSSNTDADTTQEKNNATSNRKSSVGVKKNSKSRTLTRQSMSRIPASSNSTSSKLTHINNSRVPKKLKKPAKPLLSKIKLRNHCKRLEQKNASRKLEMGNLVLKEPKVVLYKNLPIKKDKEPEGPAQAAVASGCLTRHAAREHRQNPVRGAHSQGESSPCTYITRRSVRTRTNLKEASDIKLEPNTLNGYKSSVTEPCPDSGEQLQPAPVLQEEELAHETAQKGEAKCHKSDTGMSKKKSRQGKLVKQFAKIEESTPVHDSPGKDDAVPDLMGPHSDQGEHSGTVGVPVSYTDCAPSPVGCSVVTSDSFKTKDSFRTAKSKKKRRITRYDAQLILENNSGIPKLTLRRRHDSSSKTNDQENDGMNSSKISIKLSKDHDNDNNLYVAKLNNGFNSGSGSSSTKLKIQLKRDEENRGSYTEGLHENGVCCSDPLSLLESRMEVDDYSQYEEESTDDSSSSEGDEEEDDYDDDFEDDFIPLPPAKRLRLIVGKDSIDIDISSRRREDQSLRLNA
Rule: IC50 below 0.2 µM gives rule met. Equal to or above 0.2 µM gives rule not met.

# Compound, Study System, Discrete Label
data = [
    ("CN(CCO)c1cc(-c2nnc(NC3CCCC3)c3cc(Cl)c(Cl)cc23)ccn1 [Example 35]", "SUV420H1 enzyme (Homo sapiens)", "rule not met"),
    ("Cn1ccc(-c2nnc(NC3CCCC3)c3cc(Cl)c(Cl)cc23)n1 [Example 4]", "SUV420H1 enzyme (Homo sapiens)", "rule met"),
    ("NC(=O)c1nnc(NC2CCCC2)c2cc(Cl)c(Cl)cc12 [Example 42]", "SUV420H1 enzyme (Homo sapiens)", "rule met"),
    ("O=C(C1CCC(O)C1)N1CC=C(c2nnc(NC3CCCC3)c3cc(Cl)c(Cl)cc23)CC1 (centres unmarked) [Example 84]", "SUV420H1 enzyme (Homo sapiens)", "rule not met"),
    ("CN1CCN(C(=O)Cn2cc(-c3nnc(NC4CCCC4)c4cc(Cl)c(Cl)cc34)cn2)CC1 [Example 61]", "SUV420H1 enzyme (Homo sapiens)", "rule met"),
    ("Clc1cc2c(NC3CCCC3)nnc(-c3ccc(CN4CCOCC4)cc3)c2cc1Cl [Example 14]", "SUV420H1 enzyme (Homo sapiens)", "rule not met"),
    ("CS(=O)(=O)CC(=O)N1CC=C(c2nnc(NC3CCCC3)c3cc(Cl)c(Cl)cc23)CC1 [Example 82]", "SUV420H1 enzyme (Homo sapiens)", "rule not met"),
    ("O=C(Cn1cc(-c2nnc(NC3CCCC3)c3cc(Cl)c(Cl)cc23)cn1)N1CCC(O)C1 (centres unmarked) [Example 59]", "SUV420H1 enzyme (Homo sapiens)", "rule not met"),
    ("OCCNc1cc(-c2nnc(NC3CCCC3)c3cc(Cl)c(Cl)cc23)ccn1 [Example 39]", "SUV420H1 enzyme (Homo sapiens)", "rule not met"),
    ("CC(=O)N1CCN(C(=O)Cn2cc(-c3nnc(NC4CCCC4)c4cc(Cl)c(Cl)cc34)cn2)CC1 [Example 62]", "SUV420H1 enzyme (Homo sapiens)", "rule not met"),
]

Hey, just so you know, these numbers are from patent US20180093956A1.
